# Tested on: LoVo
# test.method.notes: Phototoxicity against human LoVo cells exposed to irradiation with 3.75 J/cm'2 UVA light prior to 72 hrs drug exposure by MTT assay
# Type: functional, cell-based
# condition.notes: light or radiation study
property.measured: IC50 (µM)
Write the value in µM as a bare number.

Before answering, review these 4 worked examples.
CCOC(=O)c1cc2ccc3c(C(=O)OCC)n(C)c(C)c3c2oc1=O; 6.7
CCOC(=O)c1c2c(c(C)n1Cc1ccccc1)-c1oc(=O)c(C(=O)OC)cc1CC2; 7.3
CCOC(=O)c1cc2c(oc1=O)-c1c(c(C(=O)OCC)n(Cc3ccccc3)c1C)CC2; 9.6
CCOC(=O)c1cc2c(oc1=O)-c1c(c(C(=O)OCC)n(C)c1C)CC2; 11.1

**Query** Report IC50 for CCOC(=O)c1cc2c(oc1=O)-c1c(c(C(=O)OCC)n(Cc3ccc(C)cc3)c1C)CC2 please.
**Result** 15
